Test system: SF-295 CNS
Assay notes: NCI tumour cell line growth inhibition, 48 h
Recorded metric: TGI

Here is how some molecules turned out for TGI.
Molecule	Result
CC(=O)OCC1OC(OCCCOP(=O)(OCCC#N)OCC2OC(n3cnc4c(N)ncnc43)C(OC(=O)c3ccccc3)C2OC(=O)c2ccccc2)C(OC(C)=O)C(OC(C)=O)C1OC(C)=O (stereo not drawn)	> 100 µM
Cn1c(=O)c(-c2ccccc2Cl)cc2cnc(NC3CCOCC3)nc21	> 25 µM
O=C(/C=C/c1ccc(OCc2ccccc2)cc1)NCc1ccc(C(=O)NCCc2ccccc2)cc1	> 100 µM
Cc1cc(Cl)ccc1N=C1NC(=O)C(CC(=O)Nc2cccc(Cl)c2)S1 (stereo not drawn)	> 100 µM
CCSC[C@@H]1C[C@](O)(c2ccccc2)[C@@H](c2ccccc2)O1	> 100 µM
O=C(/C=C/c1ccc(-c2ccccc2)cc1)NCc1ccc(C(=O)NCCc2ccccc2)cc1	> 100 µM

Give TGI for each listed item.
1. Cc1cc(N2CCC(N3CCCC3)CC2)nc(/N=C(\N)Nc2ccc(Cl)c(Cl)c2)n1
2. O=C(Nc1cccc(-n2ccc3c(NC(=O)c4ccccc4)ncnc32)c1)Nc1ccc(Cl)c(C(F)(F)F)c1

result:
["3.55 µM", "7.24 µM"]

====

I'd appreciate it if you could supply TGI values for the items below.
Tested on: MDA-MB-231 breast
Assay notes: NCI tumour cell line growth inhibition, 48 h

Here is how some molecules turned out for TGI.
                                   molecule    result
0  O=S(=O)(c1ccccc1)N1CCCC(c2ccccc2)CC1 (stereo not drawn)  > 100 µM
1  C[N+](C)(CCNc1ccc(NCC[N+](C)(C)Cc2ccc([N+](=O)[O-])cc2)c2c1C(=O)c1c(O)ccc(O)c1C2=O)Cc1ccc([N+](=O)[O-])cc1   > 50 µM

Next molecule, please.
query: Quick one: TGI for C=C1C(=O)OC2CC(C)C(/C=C/C(C)=O)=CCC12 (stereo not drawn) ?
result: > 100 µM

====

Tested on: SF-295 CNS
Assay notes: NCI tumour cell line growth inhibition, 48 h
I'd appreciate it if you could supply TGI values for the items below.
Answers are plain numbers, in µM.

Give TGI for each listed item.
1. O=[N+]([O-])c1ccccc1N=Nc1c(O)[nH]c2c(Cl)cccc12
2. COC(=O)CC1(O)C(=O)OCc2c1cc1n(c2=O)Cc2c-1nc1ccccc1c2OC (stereo not given)

result:
1: 31.6; 2: 17.5

====

I'd appreciate it if you could supply TGI values for the items below.
System: HCT-15 colon
Assay notes: NCI tumour cell line growth inhibition, 48 h

Compound	Result
C[C@]12CC[C@H]3[C@@H](CC=C4C[C@@H](O)CC[C@@]43C)[C@@H]1C/C(=C\c1cccnc1)[C@@H]2O	> 100 µM
CC(C)c1cc(=O)[nH]c2cc(N)ccc12	> 100 µM
CCCCCCCCCCCCCCCCCc1nc(Cl)nc(Cl)c1Cl	> 100 µM
O=C(/C=C/c1ccc(OCc2ccccc2)cc1)NCc1ccc(C(=O)NCCc2ccccc2)cc1	> 100 µM
CCCN1C(=O)/C(=C/c2ccc(SC(F)(F)F)cc2)SC1=Nc1ccc(OC)cc1	36.9 µM
Cc1cc(N2CCC(N3CCCC3)CC2)nc(/N=C(\N)Nc2ccc(Cl)c(Cl)c2)n1	3.64 µM
CC(=O)Oc1ccc2cc(Oc3cc(Cl)c(Cl)cc3Cl)c(=O)oc2c1	26.3 µM
CC[C@H](C)[C@H](NC(=O)C12C3C4C1C1C2C3C41NC)C(=O)N(C)[C@H](C[C@@H](OC(C)=O)c1nc(C(=O)N[C@@H](Cc2ccccc2)C[C@H](C)C(=O)OC)cs1)C(C)C (stereo not given in full)	> 14.3 µM

Give TGI for each listed item.
1. COC(=O)c1ccccc1C1CN=NC12Cc1ccc(C)cc1C2=O (stereo not given)
2. Cc1sc(/N=C/C2=C(O)CC(C)(C)CC2=O)nc1-c1ccccc1
3. COc1ccc(OC)c2c(C(C)=O)cccc12
4. O=C(N/C(=C\c1ccc([N+](=O)[O-])cc1)c1nc2ccccc2s1)c1ccccc1
5. O=CN1CCN(c2ccc3ccc(=O)[nH]c3n2)CC1
6. Fc1ccccc1CN1COc2c(cc(Cl)c3cccnc23)C1

result:
> 100 µM
> 100 µM
> 100 µM
> 100 µM
> 100 µM
2.23 µM

Give TGI for each listed item.
1. CC(=O)OCC1OC(OCCCOP(=O)(OCCC#N)OCC2OC(n3cnc4c(N)ncnc43)C(OC(=O)c3ccccc3)C2OC(=O)c2ccccc2)C(OC(C)=O)C(OC(C)=O)C1OC(C)=O (stereo not given)
2. CC(C)(C)N/N=C(/Cc1nc2c3c(ccc2[nH]c1=O)C(=O)c1ccccc1C3=O)C(=O)NC1=C(Cl)C(=O)c2ccccc2C1=O
3. O=C(Nc1cccc(-n2ccc3c(NC(=O)c4ccccc4)ncnc32)c1)Nc1ccc(Cl)c(C(F)(F)F)c1

result:
> 100 µM
20.3 µM
10.2 µM

====

Test system: SNB-75 CNS
Assay notes: NCI tumour cell line growth inhibition, 48 h
I'd appreciate it if you could supply TGI values for the items below.

Here is how some compounds turned out for TGI.
>>> print(df.to_string())
                                   compound  tested_target    result
0  O=C1NC(N2CCCC(CO)C2)=N/C1=C\c1cccs1 (stereo unspecified)     SNB-75 CNS  > 100 µM
1  N[C@@H]1CCCN(c2c(Br)cnc3[nH]cc(NC(=O)C4CC4)c23)C1     SNB-75 CNS   7.54 µM
2        O=CN1CCN(c2ccc3ccc(=O)[nH]c3n2)CC1     SNB-75 CNS  > 100 µM
3  Clc1ccc2c(NCCNc3nc(N4CCOCC4)nc4ccccc34)ccnc2c1     SNB-75 CNS   2.85 µM
4                CCCOC(=O)c1cc(O)c(O)c(O)c1     SNB-75 CNS  > 100 µM

Give TGI for each listed item.
1. CCCC1C[C@H]2CCCCN2[C@H]2CCCN12 (stereo partly specified)
2. Cc1c2cc[n+](Cc3ccc(I)cc3)cc2c(C)c2c1[nH]c1ccccc12
3. Cc1nc2ccc(NCCN(C)C)c3c(=O)c4ccccc4n1c23
4. CCOC(=O)[C@@]12C[C@](/C=C/OC)(O[Si](C)(C)C)[C@@]13c1cc(OC)c(OC)cc1CCN3C(=O)C2=O
5. C/C(=C\C(=O)Nc1ccc2n[nH]nc2c1)Nc1ccc2n[nH]nc2c1
6. COc1ccc(-c2nc3ccccc3c(=O)[nH]2)cc1

result:
1: > 100 µM; 2: 1.58 µM; 3: 17.8 µM; 4: > 100 µM; 5: > 100 µM; 6: 84.9 µM

====

Tested on: MALME-3M melanoma
Assay notes: NCI tumour cell line growth inhibition, 48 h
Recorded metric: TGI

Here is how some compounds turned out for TGI.
>>> df
         structure_string    result
0          OCCCN=C1CCCCC1  > 100 µM
1  CC1(C)CC(O)CC(C)(C)N1O  > 100 µM

Next compound, please.
query: Quick one: TGI for `COc1ccc(OC)c2c(C(C)=O)cccc12` ?
result: > 100 µM

====

Tested on: NCI/ADR-RES ovarian
Assay notes: NCI tumour cell line growth inhibition, 48 h
Recorded metric: TGI

Give TGI for each listed item.
1. CCn1c(-c2nonc2N)nc2ccccc21
2. COc1cc(C2CC(c3ccccc3)=NN2C=O)ccc1Oc1ccnc2cc(Cl)ccc12 (stereo not given)

result:
1: > 25 µM; 2: > 100 µM

====

Tested on: HOP-92 NSCLC
Assay notes: NCI tumour cell line growth inhibition, 48 h
I'd appreciate it if you could supply TGI values for the items below.

Here is how some compounds turned out for TGI.
                                   compound    result
0  O=c1[nH]c2cc(Cl)ccc2nc1/C(=N\Nc1ccccc1)C(O)c1ccc2c(c1)OCO2 (stereo unspecified)  > 100 µM
1  CC(=O)OC1CCn2c1nc1cc([N+](=O)[O-])c(C)cc12 (stereo unspecified)  > 100 µM
2  CCOP1(=O)CC(C)=C(Cl)C(OC)C1 (stereo unspecified)  > 100 µM
3  S=c1ncc(-c2cncc(-c3cnc(=S)[nH]c3)n2)c[nH]1  > 100 µM

Give TGI for each listed item.
1. CCn1c(-c2nonc2N)nc2ccccc21
2. c1ccc(C(Oc2noc3ccccc23)c2ccccc2)cc1

result:
["> 25 µM", "> 100 µM"]

====

Test system: UO-31 renal
Assay notes: NCI tumour cell line growth inhibition, 48 h
I'd appreciate it if you could supply TGI values for the items below.

Here is how some compounds turned out for TGI.
                                   compound  tested_target    result
0          CCOC(=O)C1=C(O)CC(=O)N=C1N1CCCC1    UO-31 renal  > 100 µM
1  Cc1c(Cl)ccc2c1NC(=O)C2(O)CC(=O)c1ccc(Cl)cc1 (stereo not drawn)    UO-31 renal  > 100 µM

Next compound, please.
query: Quick one: TGI for `CNC(=O)OCc1cnc([N+](=O)[O-])n1C` ?
result: > 100 µM
